Test system: LOU-NH91
Assay: relative viability (nuclei count vs DMSO), 5 days (fraction); higher = more cells survive
Conditions: first compound 4 µM

COMPOUND | TEST_TARGET | relative viability
C[C@@H]1CN(CC(=O)Nc2ccc3c(c2)Cc2cccc(-c4cc(=O)cc(N5CCOCC5)o4)c2S3)C[C@H](C)O1 + COc1cc2c(Oc3ccc(NC(=O)C4(C(=O)Nc5ccc(F)cc5)CC4)cc3F)ccnc2cc1OCCCN1CCOCC1 [Foretinib] (partner 0.25 µM) | LOU-NH91 | 0.897
Clc1ccc(Nc2nnc(Cc3ccncc3)c3ccccc23)cc1 [Vatalanib] + CC1(C)CCC(c2ccc(Cl)cc2)=C(CN2CCN(c3ccc(C(=O)NS(=O)(=O)c4ccc(N[C@H](CCN5CCOCC5)CSc5ccccc5)c(S(=O)(=O)C(F)(F)F)c4)cc3)CC2)C1 [Navitoclax] (partner 0.5 µM) | LOU-NH91 | 0.61
COc1cc(N2CCC(C(N)=O)CC2)ccc1Nc1nc(N)c(Cl)c(Nc2ccccc2S(=O)(=O)C(C)C)n1 [HG-5-88-01] + CC1(C)CCC(c2ccc(Cl)cc2)=C(CN2CCN(c3ccc(C(=O)NS(=O)(=O)c4ccc(N[C@H](CCN5CCOCC5)CSc5ccccc5)c(S(=O)(=O)C(F)(F)F)c4)cc3)CC2)C1 [Navitoclax] (partner 0.5 µM) | LOU-NH91 | 0.468
Clc1ccc(Nc2nnc(Cc3ccncc3)c3ccccc23)cc1 [Vatalanib] + COc1cc2c(Oc3ccc(NC(=O)C4(C(=O)Nc5ccc(F)cc5)CC4)cc3F)ccnc2cc1OCCCN1CCOCC1 [Foretinib] (partner 0.25 µM) | LOU-NH91 | 0.91
COc1cc(N2CCC(C(N)=O)CC2)ccc1Nc1nc(N)c(Cl)c(Nc2ccccc2S(=O)(=O)C(C)C)n1 [HG-5-88-01] + COc1cc2c(Oc3ccc(NC(=O)C4(C(=O)Nc5ccc(F)cc5)CC4)cc3F)ccnc2cc1OCCCN1CCOCC1 [Foretinib] (partner 0.25 µM) | LOU-NH91 | 0.672
Clc1ccc(Nc2nnc(Cc3ccncc3)c3ccccc23)cc1 [Vatalanib] + CC(=O)c1c(C)c2cnc(Nc3ccc(N4CCNCC4)cn3)nc2n(C2CCCC2)c1=O [Palbociclib] (partner 0.5 µM) | LOU-NH91 | 0.55
COc1cc(N2CCC(C(N)=O)CC2)ccc1Nc1nc(N)c(Cl)c(Nc2ccccc2S(=O)(=O)C(C)C)n1 [HG-5-88-01] + CC(=O)c1c(C)c2cnc(Nc3ccc(N4CCNCC4)cn3)nc2n(C2CCCC2)c1=O [Palbociclib] (partner 0.5 µM) | LOU-NH91 | 0.55
COc1cc(N2CCC(C(N)=O)CC2)ccc1Nc1nc(N)c(Cl)c(Nc2ccccc2S(=O)(=O)C(C)C)n1 [HG-5-88-01] + CCNC(=O)c1noc(-c2cc(C(C)C)c(O)cc2O)c1-c1ccc(CN2CCOCC2)cc1 [Luminespib] (partner 0.01 µM) | LOU-NH91 | 0.356
C[C@@H]1CN(CC(=O)Nc2ccc3c(c2)Cc2cccc(-c4cc(=O)cc(N5CCOCC5)o4)c2S3)C[C@H](C)O1 + CS(=O)(=O)CCNCc1ccc(-c2ccc3ncnc(Nc4ccc(OCc5cccc(F)c5)c(Cl)c4)c3c2)o1 [Lapatinib] (partner 2 µM) | LOU-NH91 | 0.733
COc1cc(N2CCC(C(N)=O)CC2)ccc1Nc1nc(N)c(Cl)c(Nc2ccccc2S(=O)(=O)C(C)C)n1 [HG-5-88-01] + CC(=O)Nc1cccc(-n2c(=O)n(C3CC3)c(=O)c3c(Nc4ccc(I)cc4F)n(C)c(=O)c(C)c32)c1 [Trametinib] (partner 0.02 µM) | LOU-NH91 | 0.579
Clc1ccc(Nc2nnc(Cc3ccncc3)c3ccccc23)cc1 [Vatalanib] + Cc1cc(Nc2cc(N3CCN(C)CC3)nc(Sc3ccc(NC(=O)C4CC4)cc3)n2)n[nH]1 [Tozasertib] (partner 0.1 µM) | LOU-NH91 | 0.621
COc1cc(N2CCC(C(N)=O)CC2)ccc1Nc1nc(N)c(Cl)c(Nc2ccccc2S(=O)(=O)C(C)C)n1 [HG-5-88-01] + NC(=O)Nc1cc(-c2cccc(F)c2)sc1C(=O)N[C@H]1CCCNC1 [AZD7762] (partner 0.2 µM) | LOU-NH91 | 0.514

###

# relative viability annotations
Tested on: PC-3 [JPC-3]
Test: relative viability (nuclei count vs DMSO), 5 days (fraction); higher = more cells survive
Conditions: first compound 0.3162 µM

COMPOUND | relative viability
CC(C)Oc1cc(Nc2nc(N[C@@H](C)c3ccc(F)cn3)ncc2Cl)n[nH]1 [AZ23] + O=C(CCCCCCC(=O)Nc1ccccc1)NO [Vorinostat] (partner 1 µM) | 0.826
CC(C)Oc1cc(Nc2nc(N[C@@H](C)c3ccc(F)cn3)ncc2Cl)n[nH]1 [AZ23] + NC(=O)Nc1cc(-c2cccc(F)c2)sc1C(=O)N[C@H]1CCCNC1 [AZD7762] (partner 0.2 µM) | 0.77
CC(C)Oc1cc(Nc2nc(N[C@@H](C)c3ccc(F)cn3)ncc2Cl)n[nH]1 [AZ23] + N=C(N)NC(=N)NCCc1ccccc1 [Phenformin] (partner 250 µM) | 0.476

###

Test system: HARA
Assay: relative viability (nuclei count vs DMSO), 5 days (fraction); higher = more cells survive
Settings: first compound 2.53 µM
# relative viability per entry
MEASURE: relative viability

MOLECULE | TEST_TARGET | MEASURE | OBSERVED_RESULT
CCCCCCCCCCCC1=C(O)C(=O)C=C(O)C1=O [Embelin] + CCNC(=O)c1noc(-c2cc(C(C)C)c(O)cc2O)c1-c1ccc(CN2CCOCC2)cc1 [Luminespib] (partner 0.01 µM) | HARA | relative viability | 0.987
CCCCCCCCCCCC1=C(O)C(=O)C=C(O)C1=O [Embelin] + O=C(CCCCCCC(=O)Nc1ccccc1)NO [Vorinostat] (partner 1 µM) | HARA | relative viability | 0.545
CCCCCCCCCCCC1=C(O)C(=O)C=C(O)C1=O [Embelin] + N=C(N)NC(=N)NCCc1ccccc1 [Phenformin] (partner 250 µM) | HARA | relative viability | 0.497
CCCCCCCCCCCC1=C(O)C(=O)C=C(O)C1=O [Embelin] + CC1(C)CCC(c2ccc(Cl)cc2)=C(CN2CCN(c3ccc(C(=O)NS(=O)(=O)c4ccc(N[C@H](CCN5CCOCC5)CSc5ccccc5)c(S(=O)(=O)C(F)(F)F)c4)cc3)CC2)C1 [Navitoclax] (partner 0.5 µM) | HARA | relative viability | 1.12
CCCCCCCCCCCC1=C(O)C(=O)C=C(O)C1=O [Embelin] + COc1cccc2cc(-c3nc([C@H]4CC[C@H](C(=O)O)CC4)n4ncnc(N)c34)[nH]c12 [OSI-027] (partner 0.5 µM) | HARA | relative viability | 0.601

###

Tested on: COR-L23
Experiment: relative viability (nuclei count vs DMSO), 5 days (fraction); higher = more cells survive
Details: first compound 0.3162 µM
Note to self: use 1.0 only for relative viability readings below 0.8; a reading exactly at 0.8 still gets 0.0.

COMPOUND | LABEL_CLASS
CC(C)Oc1cc(Nc2nc(N[C@@H](C)c3ccc(F)cn3)ncc2Cl)n[nH]1 [AZ23] + CC(=O)c1c(C)c2cnc(Nc3ccc(N4CCNCC4)cn3)nc2n(C2CCCC2)c1=O [Palbociclib] (partner 0.5 µM) | 1.0
CC(C)Oc1cc(Nc2nc(N[C@@H](C)c3ccc(F)cn3)ncc2Cl)n[nH]1 [AZ23] + CS(=O)(=O)N1CCN(Cc2cc3nc(-c4cccc5[nH]ncc45)nc(N4CCOCC4)c3s2)CC1 [Pictilisib] (partner 1 µM) | 0.0
CC(C)Oc1cc(Nc2nc(N[C@@H](C)c3ccc(F)cn3)ncc2Cl)n[nH]1 [AZ23] + COc1cc2c(Oc3ccc(NC(=O)C4(C(=O)Nc5ccc(F)cc5)CC4)cc3F)ccnc2cc1OCCCN1CCOCC1 [Foretinib] (partner 0.25 µM) | 0.0
CC(C)Oc1cc(Nc2nc(N[C@@H](C)c3ccc(F)cn3)ncc2Cl)n[nH]1 [AZ23] + CS(=O)(=O)CCNCc1ccc(-c2ccc3ncnc(Nc4ccc(OCc5cccc(F)c5)c(Cl)c4)c3c2)o1 [Lapatinib] (partner 2 µM) | 0.0
CC(C)Oc1cc(Nc2nc(N[C@@H](C)c3ccc(F)cn3)ncc2Cl)n[nH]1 [AZ23] + C[C@@H](Oc1cc(-c2cnn(C3CCNCC3)c2)cnc1N)c1c(Cl)ccc(F)c1Cl [Crizotinib] (partner 1 µM) | 1.0

###

System: NCI-H1651
Assay: relative viability (nuclei count vs DMSO), 5 days (fraction); higher = more cells survive
Details: first compound 0.04 µM
MEASURE: relative viability

COMPOUND | OBSERVED_RESULT
Clc1ccc(Nc2nnc(Cc3ccncc3)c3ccccc23)cc1 [Vatalanib] + CC(=O)Nc1cccc(-n2c(=O)n(C3CC3)c(=O)c3c(Nc4ccc(I)cc4F)n(C)c(=O)c(C)c32)c1 [Trametinib] (partner 0.02 µM) | 0.802
COc1cc(N2CCC(C(N)=O)CC2)ccc1Nc1nc(N)c(Cl)c(Nc2ccccc2S(=O)(=O)C(C)C)n1 [HG-5-88-01] + COc1cc2c(Oc3ccc(NC(=O)C4(C(=O)Nc5ccc(F)cc5)CC4)cc3F)ccnc2cc1OCCCN1CCOCC1 [Foretinib] (partner 0.25 µM) | 0.793
Clc1ccc(Nc2nnc(Cc3ccncc3)c3ccccc23)cc1 [Vatalanib] + COc1cc2c(Oc3ccc(NC(=O)C4(C(=O)Nc5ccc(F)cc5)CC4)cc3F)ccnc2cc1OCCCN1CCOCC1 [Foretinib] (partner 0.25 µM) | 0.885
C[C@@H]1CN(CC(=O)Nc2ccc3c(c2)Cc2cccc(-c4cc(=O)cc(N5CCOCC5)o4)c2S3)C[C@H](C)O1 + CC(C)C[C@H](NC(=O)[C@H](Cc1ccccc1)NC(=O)c1cnccn1)B(O)O [Bortezomib] (partner 0.002 µM) | 0.848
C[C@@H]1CN(CC(=O)Nc2ccc3c(c2)Cc2cccc(-c4cc(=O)cc(N5CCOCC5)o4)c2S3)C[C@H](C)O1 + Cc1cc(Nc2cc(N3CCN(C)CC3)nc(Sc3ccc(NC(=O)C4CC4)cc3)n2)n[nH]1 [Tozasertib] (partner 0.1 µM) | 0.683
COc1cc(N2CCC(C(N)=O)CC2)ccc1Nc1nc(N)c(Cl)c(Nc2ccccc2S(=O)(=O)C(C)C)n1 [HG-5-88-01] + CC(=O)c1c(C)c2cnc(Nc3ccc(N4CCNCC4)cn3)nc2n(C2CCCC2)c1=O [Palbociclib] (partner 0.5 µM) | 0.571
